List of Plant response rating (scale 0 to 100), Johnsongrass values.
- Tested on: johnsongrass (Sorghum halepense)
- assay-explanation: Test D pre-/postemergence plant response
- Assay type: in vivo
- condition-summary: Postemergence, 16 g ai/ha
- Text: […]
Answer using only a numeral; do not append any unit.

Please review the following examples before continuing.
# compound, test-value
measured = [
    ("Clc1cnc(Oc2ccccc2-c2ccon2)nc1 [Compound 185]", 0),
    ("FC(F)c1cc(-c2c(Cl)cccc2Oc2ncc(Cl)cn2)no1 [Compound 179]", 0),
    ("Cc1cc(-c2c(F)cccc2Oc2ncc(Br)cn2)on1 [Compound 230]", 0),
]

# context switch: different compound, same Plant response rating (scale 0 to 100), Johnsongrass
Req: State its Plant response rating (scale 0 to 100), Johnsongrass: CC(F)(F)c1cc(-c2ccccc2Oc2ncc(Cl)cn2)no1 [Compound 220]
Resp: 5

###

- Test system: pigweed (Amaranthus retroflexus)
- assay-explanation: Test B pre-/postemergence plant response
- Assay type: in vivo
- condition-summary: Postemergence, 31 g ai/ha; 0 to 100 scale (0 no effect, 100 complete control)
Criterion: Plant response rating, Pigweed meeting or surpassing 20. Met: 1.0. Not met: 0.0.

# smiles, cat
data = [
    ("Cc1ccnc(-c2ccccc2Oc2ncc(Cl)cn2)c1", 0.0),
    ("FC(F)(F)COc1cc(-c2ccccc2Oc2ncc(Cl)cn2)ncn1", 1.0),
    ("N#Cc1ccnc(-c2ccccc2Oc2ncc(Cl)cn2)c1", 0.0),
    ("CC(F)(F)c1cc(-c2ccccc2Oc2ncc(Br)cn2)no1", 1.0),
    ("Cc1cc(-c2c(F)cccc2Oc2ncc(Br)cn2)on1", 1.0),
]

Req: Is reported Plant response rating, Pigweed greater than or equal to 20 here: COc1ccnc(-c2ccccc2Oc2ncc(Cl)cn2)c1
Resp: 0.0

Req: Is reported Plant response rating, Pigweed greater than or equal to 20 here: Fc1ccc(Oc2ncc(Cl)cn2)c(-c2cc(C(F)(Cl)Cl)on2)c1
Resp: 1.0

Req: Is reported Plant response rating, Pigweed greater than or equal to 20 here: Cc1cc(-c2c(F)cccc2Oc2ncc(Cl)cn2)on1
Resp: 1.0

###

List of Plant response rating, Ragweed values.
- System: ragweed (common ragweed, Ambrosia elatior)
- assay-explanation: Test D pre-/postemergence plant response
- Format: in vivo
- condition-summary: Preemergence; 31 g ai/ha; scale 0 to 100 (0 no effect, 100 complete control)

# smiles, test-value
data = [
    ("Fc1cccc(Oc2ncc(Br)cn2)c1-c1cc(C(F)F)on1", 20),
]

Req: Please indicate recorded Plant response rating, Ragweed of Cc1cc(-c2c(F)cccc2Oc2ncc(Cl)cn2)on1 measured with ragweed (common ragweed, Ambrosia elatior).
Resp: 50

Req: Please indicate recorded Plant response rating, Ragweed of Cc1cc(-c2ccccc2Oc2ncc(Cl)cn2)on1 measured with ragweed (common ragweed, Ambrosia elatior).
Resp: 35

Req: Please indicate recorded Plant response rating, Ragweed of FC(F)(Cl)c1cc(-c2ccccc2Oc2ncc(Cl)cn2)no1 measured with ragweed (common ragweed, Ambrosia elatior).
Resp: 30

###

List of Kochia plant response rating values.
- System: kochia (Kochia scoparia)
- assay-explanation: Test D postemergence plant response
- Type: in vivo
- condition-summary: 31 g ai/ha, scale 0 to 100 (0 no effect, 100 complete control)
Answer using only a numeral; do not append any unit.

# molecule, experimental-target, assay-readout, test-value
records = [
    ("FC(F)c1cc(-c2c(Cl)cccc2Oc2ncc(Br)cn2)on1 [Compound 121]", "kochia (Kochia scoparia)", "Kochia plant response rating", 100),
]

Req: Please indicate recorded Kochia plant response rating of N#Cc1cccc(Oc2ncc(Cl)cn2)c1-c1cc(C(F)F)on1 [Compound 180] measured with kochia (Kochia scoparia).
Resp: 90

Req: Please indicate recorded Kochia plant response rating of Fc1cccc(Oc2ncc(Cl)cn2)c1-c1cc(C2CC2)on1 [Compound 130] measured with kochia (Kochia scoparia).
Resp: 95

Req: Please indicate recorded Kochia plant response rating of Cc1cc(-c2ccccc2Oc2ncc(Cl)cn2)no1 [Compound 153] measured with kochia (Kochia scoparia).
Resp: 50

Req: Please indicate recorded Kochia plant response rating of FCc1cc(-c2ccccc2Oc2ncc(Cl)cn2)on1 [Compound 224] measured with kochia (Kochia scoparia).
Resp: 70

Req: Please indicate recorded Kochia plant response rating of FC(F)(F)c1cc(-c2ccccc2Oc2ncc(Cl)cn2)ncn1 [Compound 54] measured with kochia (Kochia scoparia).
Resp: 55

Req: Please indicate recorded Kochia plant response rating of FC(F)Oc1cccc(Oc2ncc(Cl)cn2)c1-c1cc(C(F)F)on1 [Compound 131] measured with kochia (Kochia scoparia).
Resp: 90

Req: Please indicate recorded Kochia plant response rating of FC(F)(F)c1cc(-c2c(Cl)cccc2Oc2ncc(Cl)cn2)no1 [Compound 169] measured with kochia (Kochia scoparia).
Resp: 60

Req: Please indicate recorded Kochia plant response rating of CC(F)(F)c1cc(-c2ccccc2Oc2ncc(Cl)cn2)on1 [Compound 178] measured with kochia (Kochia scoparia).
Resp: 95

###

- Tested on: spring barley (Hordeum vulgare)
- assay-explanation: Test E pre-/postemergence plant response
- Type: in vivo
- condition-summary: post-emergence, 125 g ai/ha, Postemergence, scale 0 to 100 (0 no effect, 100 complete control), read-out: Plant response rating, Barley, Spring
assay-readout: plant injury at 125 g/ha (%)
Could you give me the number in %? Just the number is fine.

# compound, experimental-target, plant injury at 125 g/ha (%)
data = [
    ("FC(F)c1cc(-c2ccccc2Oc2ncc(Br)cn2)no1 [Compound 62]", "spring barley (Hordeum vulgare)", 25),
]

Req: Please indicate recorded plant injury at 125 g/ha of FC(F)c1cc(-c2ccccc2Oc2ncc(Cl)cn2)on1 [Compound 53] measured with spring barley (Hordeum vulgare).
Resp: 10

Req: Please indicate recorded plant injury at 125 g/ha of FC(F)c1cc(-c2ccccc2Oc2ncc(Cl)cn2)no1 [Compound 35] measured with spring barley (Hordeum vulgare).
Resp: 25

Req: Please indicate recorded plant injury at 125 g/ha of Fc1cccc(Oc2ncc(Br)cn2)c1-c1cc(C(F)F)no1 [Compound 145] measured with spring barley (Hordeum vulgare).
Resp: 30

###

List of Plant response rating, Barnyardgrass values.
- Test system: barnyardgrass (Echinochloa crus-galli)
- assay-explanation: Test B pre-/postemergence plant response
- Type: in vivo
- condition-summary: Preemergence, 500 g ai/ha; 0 to 100 scale where 0 is no effect and 100 is complete control
Answer using only a numeral; do not append any unit.

Please review the following examples before continuing.
# smiles, test-value
data = [
    ("FC(F)(F)c1csc(-c2ccccc2Oc2ncc(Br)cn2)n1", 0),
    ("FC(F)c1cc(-c2c(Cl)cccc2Oc2ncc(Cl)cn2)no1", 90),
    ("Cn1nnc(-c2ccccc2Oc2ncc(Cl)cn2)n1", 40),
    ("FC(F)(F)c1csc(-c2ccccc2Oc2ncc(I)cn2)n1", 0),
]

# context switch: different compound, same Plant response rating, Barnyardgrass
Req: State its Plant response rating, Barnyardgrass: Cn1nc(C(F)(F)F)cc1-c1ccccc1Oc1ncc(Br)cn1
Resp: 0

###

- Test system: deadnettle (henbit deadnettle, Lamium amplexicaule)
- assay-explanation: Test E pre-/postemergence plant response
- Format: in vivo
- condition-summary: post-emergence, 125 g ai/ha, Postemergence, scale 0 to 100, read-out: Plant response rating, Deadnettle
assay-readout: pest or weed control at 125 g/ha (%)
Could you give me the number in %? Just the number is fine.

Req: State its pest or weed control at 125 g/ha: Fc1cccc(Oc2ncc(Cl)cn2)c1-c1cc(C(F)(F)F)on1 [Compound 168]
Resp: 80

Req: State its pest or weed control at 125 g/ha: Fc1cccc(Oc2ncc(Br)cn2)c1-c1cc(C(F)F)no1 [Compound 145]
Resp: 100

Req: State its pest or weed control at 125 g/ha: FC(F)c1cc(-c2ccccc2Oc2ncc(Br)cn2)no1 [Compound 62]
Resp: 70

Req: State its pest or weed control at 125 g/ha: FC(F)c1cc(-c2ccccc2Oc2ncc(Cl)cn2)on1 [Compound 53]
Resp: 65

Req: State its pest or weed control at 125 g/ha: FC(F)(F)c1cc(-c2ccccc2Oc2ncc(Cl)cn2)no1 [Compound 200]
Resp: 90

###

List of Plant response rating, Barnyardgrass values.
- System: barnyardgrass (Echinochloa crus-galli)
- assay-explanation: Test B pre-/postemergence plant response
- Format: in vivo
- condition-summary: Preemergence, 500 g ai/ha; 0 to 100 scale where 0 is no effect and 100 is complete control
Answer using only a numeral; do not append any unit.

# compound, Plant response rating, Barnyardgrass
data = [
    ("Clc1cnc(Oc2ccccc2-c2cccs2)nc1 [Compound 182]", 20),
    ("Clc1cnc(Oc2ccccc2-c2cc(C3CC3)on2)nc1 [Compound 183]", 80),
    ("Clc1ccc(-c2c(I)cccc2Oc2ncc(Cl)cn2)nc1 [Compound 205]", 10),
]

Req: State its Plant response rating, Barnyardgrass: Clc1cnc(Oc2ccccc2-c2cc(Cl)cc(Cl)c2)nc1 [Compound 41]
Resp: 0

Req: State its Plant response rating, Barnyardgrass: Fc1cnc(Oc2ccccc2-c2cc(C(F)(F)F)on2)nc1 [Compound 206]
Resp: 30

Req: State its Plant response rating, Barnyardgrass: N#Cc1cccc(-n2cc(Br)cn2)c1Oc1ncc(Cl)cn1 [Compound 209]
Resp: 10

Req: State its Plant response rating, Barnyardgrass: FC(F)(F)c1ccnc(-c2c(Cl)cccc2Oc2ncc(Cl)cn2)c1 [Compound 159]
Resp: 60

Req: State its Plant response rating, Barnyardgrass: FC(F)(F)c1csc(-c2ccccc2Oc2ncc(Cl)cn2)n1 [Compound 137]
Resp: 10
